system: Micrococcus flavus; experiment: Antibacterial activity against Micrococcus flavus ATCC 10240 after 24 hrs by microbroth double dilution method; type: functional; settings: ATCC 10240, 24 h
Simple rule here: MIC less than 200 µM is Condition met, otherwise Condition not met.

CSCC[C@H](NC1=CC(=O)C=C(C(C)(C)C)C1=O)C(=O)O ... Condition not met
CC(C)C[C@H](NC1=CC(=O)C=C(C(C)(C)C)C1=O)C(=O)O ... Condition not met
CC(C)(C)C1=CC(=O)C=C(N[C@@H](Cc2ccccc2)C(=O)O)C1=O ... Condition not met
CC(C)(C)C1=CC(=O)C=C(N[C@@H](Cc2c[nH]c3ccccc23)C(=O)O)C1=O ... Condition not met
CC1=CCC[C@H]2[C@](C)(CC3=CC(=O)C(N4CCC[C@H]4C(=O)O)=CC3=O)[C@@H](C)CC[C@]12C ... Condition met
CC1=CCC[C@H]2[C@](C)(CC3=CC(=O)C=C(N[C@@H](Cc4ccccc4)C(=O)O)C3=O)[C@@H](C)CC[C@]12C ... Condition met
CSCC[C@H](NC1=CC(=O)C=C(C[C@]2(C)[C@@H](C)CC[C@]3(C)C(C)=CCC[C@@H]23)C1=O)C(=O)O ... Condition met
CC(C)(C)C1=CC(=O)C=CC1=O ... Condition not met

---

system: Artemia salina; assay: Cytotoxicity in Brine shrimp assessed as nauplii mortality after 24 hrs; assay type: organism-based; details: in vivo
Catalogue of LC50 readings, one per entry.
testReadout: LC50 (ppm)

C[C@H](NC1=CC(=O)C=C(C(C)(C)C)C1=O)C(=O)O ... 393.8
CC1=CCC[C@H]2[C@](C)(CC3=CC(=O)C=CC3=O)[C@@H](C)CC[C@]12C ... 170
CC(C)(C)C1=CC(=O)C=CC1=O ... 27.4
CC1=CCC[C@H]2[C@](C)(CC3=CC(=O)C=C(NCC(=O)O)C3=O)[C@@H](C)CC[C@]12C ... 487.1
CSCC[C@H](NC1=CC(=O)C=C(C(C)(C)C)C1=O)C(=O)O ... 360.2
CC(C)(C)C1=CC(=O)C=C(N[C@@H](Cc2ccccc2)C(=O)O)C1=O ... 196.8
CC1=CCC[C@H]2[C@](C)(CC3=CC(=O)C=C(N[C@@H](Cc4ccccc4)C(=O)O)C3=O)[C@@H](C)CC[C@]12C ... 96.7
CSCC[C@H](NC1=CC(=O)C=C(C[C@]2(C)[C@@H](C)CC[C@]3(C)C(C)=CCC[C@@H]23)C1=O)C(=O)O ... 147.7
CC(C)C[C@H](NC1=CC(=O)C=C(C(C)(C)C)C1=O)C(=O)O ... 104.8
CC1=CCC[C@H]2[C@](C)(CC3=CC(=O)C=C(N[C@@H](CC(C)C)C(=O)O)C3=O)[C@@H](C)CC[C@]12C ... 117
CC(C)(C)C1=CC(=O)C=C(NCCC(=O)O)C1=O ... 833.2
CC(C)[C@@H](NC1=CC(=O)C=C(C(C)(C)C)C1=O)C(=O)O ... 574.9
CC1=CCC[C@H]2[C@](C)(CC3=CC(=O)C=C(NCCC(=O)O)C3=O)[C@@H](C)CC[C@]12C ... 84.3

---

tested on: Pseudomonas aeruginosa; assay: Antibacterial activity against Pseudomonas aeruginosa ATCC 9027 after 24 hrs by microbroth double dilution method; type: functional; details: ATCC 9027, 24 h
testReadout: log10 MIC (log10 of the value in µM)

CC(C)(C)C1=CC(=O)C=C(NCCC(=O)O)C1=O ... 3.40
CC1=CCC[C@H]2[C@](C)(CC3=CC(=O)C=C(NCCC(=O)O)C3=O)[C@@H](C)CC[C@]12C ... 2.89
CC1=CCC[C@H]2[C@](C)(CC3=CC(=O)C=CC3=O)[C@@H](C)CC[C@]12C ... 1.14
CC1=CCC[C@H]2[C@](C)(CC3=CC(=O)C(N4CCC[C@H]4C(=O)O)=CC3=O)[C@@H](C)CC[C@]12C ... 2.26
CC(C)(C)C1=CC(=O)C=C(NCC(=O)O)C1=O ... 2.82
NCC[C@H](O)C(=O)N[C@@H]1C[C@H](N)[C@@H](O[C@H]2O[C@H](CN)[C@@H](O)[C@H](O)[C@H]2O)[C@H](O)[C@H]1O[C@H]1O[C@H](CO)[C@@H](O)[C@H](N)[C@H]1O ... 1.93
CC(C)(C)C1=CC(=O)C(N2CCC[C@H]2C(=O)O)=CC1=O ... 3.35
CC(C)C[C@H](NC1=CC(=O)C=C(C(C)(C)C)C1=O)C(=O)O ... 3.63
CC1=CCC[C@H]2[C@](C)(CC3=CC(=O)C=C(N[C@@H](C(=O)O)C(C)C)C3=O)[C@@H](C)CC[C@]12C ... 1.96
CC(C)(C)C1=CC(=O)C=CC1=O ... 2.68
CSCC[C@H](NC1=CC(=O)C=C(C(C)(C)C)C1=O)C(=O)O ... 3.30
CC(C)(C)C1=CC(=O)C=C(N[C@@H](Cc2c[nH]c3ccccc23)C(=O)O)C1=O ... 3.23
CC1=CCC[C@H]2[C@](C)(CC3=CC(=O)C=C(N[C@@H](Cc4ccccc4)C(=O)O)C3=O)[C@@H](C)CC[C@]12C ... 1.31
C[C@H](NC1=CC(=O)C=C(C(C)(C)C)C1=O)C(=O)O ... 3.40
CC(C)(C)C1=CC(=O)C=C(N[C@@H](Cc2ccccc2)C(=O)O)C1=O ... 3.28
CC1=CCC[C@H]2[C@](C)(CC3=CC(=O)C=C(N[C@@H](CC(C)C)C(=O)O)C3=O)[C@@H](C)CC[C@]12C ... 1.95
CSCC[C@H](NC1=CC(=O)C=C(C[C@]2(C)[C@@H](C)CC[C@]3(C)C(C)=CCC[C@@H]23)C1=O)C(=O)O ... 2.23
